Listed binders paired with reported pKd
Target: T1, R664Q Cdc4^WD40 (yeast, UniProt P07834 367-744, R664Q)
T1 construct: Cdc4, yeast F-box protein, WD40 domain, residues 367-744, with Arg664Gln in the allosteric pocket; also called Arg664Gln Cdc4^WD40; mutant (Arg664Gln) Cdc4^WD40; source: E. coli, purified as the wild type (Ni-NTA, Ulp protease, Ni-NTA, Superdex 200)
T1 sequence (looked up): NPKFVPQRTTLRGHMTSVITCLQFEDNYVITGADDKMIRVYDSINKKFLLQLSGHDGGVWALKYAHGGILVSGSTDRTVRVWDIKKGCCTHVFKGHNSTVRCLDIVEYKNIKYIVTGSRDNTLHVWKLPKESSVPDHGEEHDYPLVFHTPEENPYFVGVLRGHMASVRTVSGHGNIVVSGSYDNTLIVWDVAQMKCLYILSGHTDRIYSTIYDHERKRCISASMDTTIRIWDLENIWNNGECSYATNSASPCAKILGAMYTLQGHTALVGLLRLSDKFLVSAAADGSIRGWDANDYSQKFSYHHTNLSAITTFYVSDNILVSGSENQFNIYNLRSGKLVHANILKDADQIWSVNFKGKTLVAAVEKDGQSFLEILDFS
Experiment: other fluorescence titration; intrinsic Trp fluorescence (excitation 298 nm, emission 366 nm); 0.5 μM Cdc4, ligand titrated; 50 mM Tris, 150 mM NaCl, 5 mM DTT, pH 7.5, 20 °C; 1:1 stoichiometry assumed
Conditions: both partners purified
Square brackets hold non-standard residues; d marks the D form. Ends that are not written are not given here. pS = N[C@@H](COP(=O)(O)O)C(=O)O
Value format note: pKd is -log10 of concentration (mol/L); just state the number.

binder	pKd
GMTSPFNGLTSPQR[pS]PFPKS [Sic1^20pS80 phosphopeptide]	5.02
GMT[pS]PFNGLTSPQR[pS]PFPKS [Sic1^20pS69/pS80 phosphopeptide]	5.43

API: the following record is the query input.
Prompt line: Return pKd (reported value) for this binder: GMT[pS]PFNGLTSPQRSPFPKS [Sic1^20pS69 phosphopeptide]
Response line: 4.71

Provenance of the data: paper PMC5216119
